We begin with a simple list: items and their reported self-cleavage.
B1: Hairpin Ribozyme (parent)
chain: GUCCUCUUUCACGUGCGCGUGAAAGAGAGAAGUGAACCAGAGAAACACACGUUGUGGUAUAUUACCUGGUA

Variants of: B1
protocol: self-cleavage, relative activity (ratio to wild type); higher = more cleavage; co-transcriptional

[
  {
    "mutant_id": "G29C A31G",
    "self-cleavage": 0.187
  },
  {
    "mutant_id": "A30C U55G",
    "self-cleavage": 0.0965
  },
  {
    "mutant_id": "G13C G21A",
    "self-cleavage": 0.61
  },
  {
    "mutant_id": "G34A G68A",
    "self-cleavage": 0.246
  },
  {
    "mutant_id": "A28U G69C",
    "self-cleavage": 0.219
  },
  {
    "mutant_id": "U2G U52G",
    "self-cleavage": 0.458
  },
  {
    "mutant_id": "G27C A64G",
    "self-cleavage": 0.186
  },
  {
    "mutant_id": "A39G A43U",
    "self-cleavage": 0.141
  },
  {
    "mutant_id": "U52A G56A",
    "self-cleavage": 0.256
  },
  {
    "mutant_id": "U2G G15C",
    "self-cleavage": 0.342
  },
  {
    "mutant_id": "C10U A45U",
    "self-cleavage": 0.111
  }
]
